B1: CHCHD3 (parent)
chain: YSGAYGASVSDEELKRRVAEELAL

Variants of: B1
Assay: protein stability index of a GFP-peptide fusion (GPS, HEK-293T) (PSI 1-6); higher = more stable;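 note: lentivirally expressed fusions sorted by FACS into six bins by GFP to DsRed ratio, PSI derived from sequencing read proportions per bin multiplied by bin number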
Conditions: c terminus: a fixed tail appended
Outcome: class 1 for protein stability index of at least 3; class 0 for anything lower.

Residue sequence	Class
YSGAYGASVSDEELKARVAEELAL [R16A]	class 0
YNGAYGASVSDEELKRRVAEELAL [S2N]	class 1
YSGAYGASESDEELKRRVAEELAL [V9E]	class 1
YSGAYGASVSDEELKRAVAEELAL [R17A]	class 0
YSGAYGLSVSDEELKRRVAEELAL [A7L]	class 0
YSGAYGASVSDEELNRRVAEELAL [K15N]	class 0
YSGAYGASVRDEELKRRVAEELAL [S10R]	class 0
YSGAYGASVSDEELKRRVAEECAL [L22C]	class 0
YSGPYGASVSDEELKRRVAEELAL [A4P]	class 1
YSGAYGASVNDEELKRRVAEELAL [S10N]	class 0
YSGAYGASVSNEELKRRVAEELAL [D11N]	class 0
YSGAYGASVSDEELKRRVAEETAL [L22T]	class 1
YSGAYGASVSDEELKRRVAEELAC [L24C]	class 0
YSGQYGASVSDEELKRRVAEELAL [A4Q]	class 0
YSGAYRASVSDEELKRRVAEELAL [G6R]	class 0
YSGAYGASVSDEEGKRRVAEELAL [L14G]	class 1
YSGAYGAWVSDEELKRRVAEELAL [S8W]	class 1
YSGDYGASVSDEELKRRVAEELAL [A4D]	class 1
YSGAYLASVSDEELKRRVAEELAL [G6L]	class 0
YSGAYGAVVSDEELKRRVAEELAL [S8V]	class 0
YSGAYGASVSDEELKMRVAEELAL [R16M]	class 0
YSGAYGASVSDEECKRRVAEELAL [L14C]	class 0
YSGAYGAYVSDEELKRRVAEELAL [S8Y]	class 0
YSGAYGASVSDEELKRRVAEEQAL [L22Q]	class 0
YSPAYGASVSDEELKRRVAEELAL [G3P]	class 1
YSGADGASVSDEELKRRVAEELAL [Y5D]	class 1
YSGAYGASFSDEELKRRVAEELAL [V9F]	class 0
YSGAYGASVSDESLKRRVAEELAL [E13S]	class 0
YSGAYIASVSDEELKRRVAEELAL [G6I]	class 0
YSGAYGVSVSDEELKRRVAEELAL [A7V]	class 0
YSGAYGAIVSDEELKRRVAEELAL [S8I]	class 0
YSGAYGASVSDENLKRRVAEELAL [E13N]	class 0
YSGAYGASVSDEELKRRVAEELYL [A23Y]	class 0
YSGAYGASVSDEELKRRIAEELAL [V18I]	class 0
YSGAYGAEVSDEELKRRVAEELAL [S8E]	class 1
YSGAYGASVSFEELKRRVAEELAL [D11F]	class 0
YSGAYGASVSREELKRRVAEELAL [D11R]	class 0
YSGAYGASPSDEELKRRVAEELAL [V9P]	class 1
YVGAYGASVSDEELKRRVAEELAL [S2V]	class 0
YSGAYGASVSDGELKRRVAEELAL [E12G]	class 0
YSGAYGASVSDEELKRRVIEELAL [A19I]	class 0
YSGAYGASVSDEELKRRVKEELAL [A19K]	class 0
YSGAYGASVSDEELKRRTAEELAL [V18T]	class 0
YSGAYGASVSDEELKRRVAEELAV [L24V]	class 0
YSGAYHASVSDEELKRRVAEELAL [G6H]	class 0
YSGAYGASVSDEELKRRVAEMLAL [E21M]	class 1
YSGAYGASVSDEELKRRVAEELTL [A23T]	class 1
YSGLYGASVSDEELKRRVAEELAL [A4L]	class 0
YSGAYGKSVSDEELKRRVAEELAL [A7K]	class 0
YSGAYGASVSDEELKRRVAEDLAL [E21D]	class 0
YSGAYGASVSDEELKRRYAEELAL [V18Y]	class 0
LSGAYGASVSDEELKRRVAEELAL [Y1L]	class 1
YSGHYGASVSDEELKRRVAEELAL [A4H]	class 0
YSGAYGAPVSDEELKRRVAEELAL [S8P]	class 0
YSTAYGASVSDEELKRRVAEELAL [G3T]	class 0
YPGAYGASVSDEELKRRVAEELAL [S2P]	class 1
YSGAYGASVSDEELKQRVAEELAL [R16Q]	class 0
YSGAYGASVSDEESKRRVAEELAL [L14S]	class 0
YSGAYGASVSDEELKRRVAEELAS [L24S]	class 0
YSGAYGASVIDEELKRRVAEELAL [S10I]	class 0
YSGAYGASVTDEELKRRVAEELAL [S10T]	class 0
YSGAYGASVSDEELKRRVAEERAL [L22R]	class 1
YSGAYGASVSDEELKRRVAETLAL [E21T]	class 0
YSGAYGASVSDEELKWRVAEELAL [R16W]	class 0
YSGAYGASVSDEELKRRWAEELAL [V18W]	class 0
YSGAYGASVSLEELKRRVAEELAL [D11L]	class 0
YSGAYAASVSDEELKRRVAEELAL [G6A]	class 0
YSGAYGASVSDEHLKRRVAEELAL [E13H]	class 0
YSKAYGASVSDEELKRRVAEELAL [G3K]	class 1
YSGAYGASVSGEELKRRVAEELAL [D11G]	class 0
YSGAYGASVSDEELKRRVAEEIAL [L22I]	class 0
YSGAYGASVSDEELKRRVTEELAL [A19T]	class 0
YSGAYGADVSDEELKRRVAEELAL [S8D]	class 1
YSGAYGASVSDEELKRRVAYELAL [E20Y]	class 0
YSGAYGASVSDEELKRRVAEKLAL [E21K]	class 0
YSGAYGASVSDEALKRRVAEELAL [E13A]	class 0
